This section presents molecules with their documented composite z-score values.
Target: Epidermal growth factor receptor (Homo sapiens)
Assay: EGFR binders on small-molecule microarrays, primary screen, biochemical, small-molecule microarray, 635 nm fluorescence (AID 1104);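 also: score merges 667 nm emission intensity with spot signal to noise over triplicate slides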
Conditions: EGFR binding, higher = more signal
Keep it simple and answer with nothing but the number.

Recorded results for 3 molecules are shown here.
molecule=C=CCNC(=O)[C@@H]1[C@H]2C(=O)O[C@H](c3ccccc3)[C@H](c3ccccc3)N2[C@H](c2ccc(O)cc2)[C@@]12C(=O)N(C(=O)OCCOC)c1ccc(C#CCC(C(=O)OC)C(=O)OC)cc12 parameter="composite z-score" readout_number=0.408
molecule=Cc1ccc(S[C@]2(C(=O)NCC(C)C)CC(=O)N(C(C)C)[C@@H]2c2ccc(CO)cc2I)cc1 parameter="composite z-score" readout_number=-0.941
molecule=COC(=O)C(CC#Cc1ccc2c(c1)[C@]1(C(=O)N2)[C@H](C(=O)N2CCCCCCC2)[C@H]2C(=O)O[C@H](c3ccccc3)[C@H](c3ccccc3)N2[C@@H]1c1ccc(OCCO)cc1)C(=O)OC parameter="composite z-score" readout_number=1.94

get_value(item= O=C(CS)NCCCCCCNC(=O)[C@H]1C[C@H]2C(=O)NCC(=O)N2[C@H]1c1cccc(OCCO)c1 , readout=composite z-score) returns 0.696

get_value(item= CCCCCN1CC=CC23O[C@@H]4/C=C\CCCOC(=O)C4[C@H]2C(=O)N(CCCCCO)[C@@H]3C1=O (stereo partly specified) , readout=composite z-score) returns -0.779

get_value(item= C=CCOC(=O)[C@H]1[C@@H]2C(=O)O[C@@H](c3ccccc3)[C@@H](c3ccccc3)N2[C@@H](c2ccc(OCCOC(=O)[C@H]3C[C@H]4C(=O)NCC(=O)N4[C@H]3c3cccc(OCCO)c3)cc2)[C@]12C(=O)Nc1ccc(I)cc12 , readout=composite z-score) returns 0.504

###

Assay: PSAC antagonists in infected red cells, primary screen, cell-based, P. falciparum Indochina, OD700, 1 h (AID 1154)
Settings: P. falciparum Indochina infected RBC osmotic lysis, higher = more signal, called active from +8 up or from −8 down
PARAMETER: z-score
Keep it simple and answer with nothing but the number.

Recorded results for 5 compounds are shown here.
compound=CC(C)(C)OC(=O)CC[C@]1(C(=O)N2CCOCC2)COC(c2ccc(OCCCO)cc2)=N1 parameter=z-score readout_number=20.8
compound=CN(C)CCCC[C@@H]1NC(=O)[C@H]2C[C@@H](C(=O)NCCCCCCNC(=O)CS)[C@@H](c3cccc(OCCO)c3)N2C1=O parameter=z-score readout_number=2.29
compound="O=C1OCCC/C=C\\[C@H]2OC34C=CCN(Cc5ccccc5)C(=O)[C@H]3N(CCO)C(=O)[C@@H]4C12 (stereo partly drawn)" parameter=z-score readout_number=1.65
compound=CC[C@@H]1C=C(C(=O)O)[C@H](c2cccc(Cl)c2)N1S(=O)(=O)c1ccc(C)cc1 parameter=z-score readout_number=0.522
compound=COCCOC(=O)N1C(=O)[C@@]2(c3cc(C#CCCO)ccc31)[C@H](C(=O)N1CCN(c3ncccn3)CC1)[C@H]1C(=O)O[C@H](c3ccccc3)[C@H](c3ccccc3)N1[C@@H]2c1ccc(OCCO)cc1 parameter=z-score readout_number=11.4

get_value(item= CC(C)N1CC=CC23O[C@@H]4/C=C\CCCOC(=O)C4[C@H]2C(=O)N(C(C)CO)[C@@H]3C1=O (stereo partly drawn) , readout=z-score) returns 1.2

get_value(item= C=CCN1C(=O)[C@]2(O[C@H](CCO)[C@@H]([Si](C)(C)c3ccc(OC)cc3)[C@@H]2C)c2cc(N3C(=O)c4ccccc4Oc4ccccc43)ccc21 , readout=z-score) returns 6.17

get_value(item= O=C(O)C1=CC[C@H]2C(=O)N(c3ccccc3)C(=O)[C@@H]12 , readout=z-score) returns 0.61

###

System: XIP peptide (Xip251-270)
Experiment: small-molecule binders of XIP peptide, primary screen, biochemical, small-molecule microarray, fluorescence 635/667 nm, 0.5 µg/mL protein (AID 1183)
Settings: small-molecule microarray binding, fluorescence 635 nm; higher = more signal
PARAMETER: composite z-score
Keep it simple and answer with nothing but the number.

Recorded results for 5 molecules are shown here.
structure_as_smiles=COCCCNC(=O)[C@]1(Cc2ccccc2CN=[N+]=[N-])N=C(c2ccc(OCCCO)cc2)O[C@@H]1c1ccccc1N=[N+]=[N-] readout_number=-0.184
structure_as_smiles=C=C[C@@H](CO)NS(=O)(=O)c1ccc(Br)cc1 readout_number=-1.58
structure_as_smiles=Cc1cccc([C@H]2C[C@H]3C(Br)=C[C@@]2(CO)C(=O)[C@]32CO2)c1 readout_number=0.137
structure_as_smiles=CC[C@@H](O[Si](C#C[Si](C(C)C)(C(C)C)C(C)C)(C(C)C)C(C)C)c1cn([C@H](CO)Cc2ccccc2)nn1 readout_number=0.411
structure_as_smiles=COc1ccc(CCNC(=O)[C@@H]2c3ccccc3C(=O)N(Cc3cc(F)cc(C(F)(F)F)c3)[C@H]2c2ccc(CO)cc2)cc1 readout_number=0.906

get_value(item= COc1ccc([Si](C)(C)[C@H]2[C@H](CC(=O)N(CCO)Cc3ccccc3)O[C@@]3(C(=O)N(c4ccccc4)c4ccccc43)[C@@H]2C)cc1 , readout=composite z-score) returns 0.342

get_value(item= CC(C)C[C@@H]1NC(=O)[C@H]2C[C@@H](C(=O)O)[C@@H](c3cccc(OCCO)c3)N2C1=O , readout=composite z-score) returns 0.737

get_value(item= C=C(CCCC)C(=O)CC[C@@H](OC(C)=O)c1ccc(OCCO)cc1 , readout=composite z-score) returns 0.607

###

Target: Luciferin 4-monooxygenase (Photinus pyralis) (UniProt P08659)
Sequence (P08659 whole entry, looked up): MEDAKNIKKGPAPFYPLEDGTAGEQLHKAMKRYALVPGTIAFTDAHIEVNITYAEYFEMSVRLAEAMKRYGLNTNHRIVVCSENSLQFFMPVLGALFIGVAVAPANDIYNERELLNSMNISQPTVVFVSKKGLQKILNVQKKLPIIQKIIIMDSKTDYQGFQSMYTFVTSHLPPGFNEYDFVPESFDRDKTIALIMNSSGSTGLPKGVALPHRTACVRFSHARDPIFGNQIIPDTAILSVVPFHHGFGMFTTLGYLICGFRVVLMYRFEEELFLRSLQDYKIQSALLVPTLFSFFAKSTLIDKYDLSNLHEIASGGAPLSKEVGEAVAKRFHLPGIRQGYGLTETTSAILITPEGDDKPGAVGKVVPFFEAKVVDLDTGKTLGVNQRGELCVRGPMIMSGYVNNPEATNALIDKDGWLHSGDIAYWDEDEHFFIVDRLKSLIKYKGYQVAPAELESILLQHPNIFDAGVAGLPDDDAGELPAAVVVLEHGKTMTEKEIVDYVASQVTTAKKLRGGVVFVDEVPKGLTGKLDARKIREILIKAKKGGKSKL
Test: firefly luciferase enzyme inhibitors, primary screen, biochemical, luminescence, purified enzyme, 2006 set (AID 1141);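 also: cell-free assay with purified firefly luciferase at 100 ng per well in PBS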
Conditions: SteadyGlo luminescence, 30 min, higher = more signal, called active from +8 up or from −8 down
Lab note: anything with z-score at or over -0.6 counts as fulfilled; the rest go in not fulfilled.

Please review the entries below; each comes with its answer.
compound=COCCOC(=O)N1C(=O)[C@@]2(c3cc(C#CCNC(N)=O)ccc31)[C@H](c1ccccc1OCCO)N1[C@H](c3ccccc3)[C@H](c3ccccc3)OC(=O)[C@H]1[C@@H]2C(=O)N1CCCCCCC1 assigned_label=fulfilled
compound=[N-]=[N+]=NCc1ccccc1C[C@@]1(C(=O)NCCN2CCOCC2)N=C(c2ccc(OCCCO)cc2)O[C@@H]1c1ccccc1 assigned_label="not fulfilled"

Quick check: does C=CCNC(=O)[C@H]1[C@@H]2C(=O)O[C@@H](c3ccccc3)[C@@H](c3ccccc3)N2[C@@H](c2ccc(O)cc2)[C@]12C(=O)Nc1ccccc12 have z-score greater than or equal to -0.6?
not fulfilled

Quick check: does CC(=O)NCCCC[C@@H]1NC(=O)[C@H]2C[C@@H](C(=O)O)[C@@H](c3cccc(OCCO)c3)N2C1=O have z-score greater than or equal to -0.6?
fulfilled

Quick check: does CCCCCCc1nc(-c2ccc(OC)nc2)c(C)c2c1[Si](C(C)C)(C(C)C)OC2 have z-score greater than or equal to -0.6?
fulfilled

Quick check: does COCCOC(=O)N1C(=O)[C@@]2(c3cc(C#CCCO)ccc31)[C@H](c1ccc(O)cc1)N1[C@H](c3ccccc3)[C@H](c3ccccc3)OC(=O)[C@H]1[C@@H]2C(=O)NC[C@H](O)c1ccccc1 have z-score greater than or equal to -0.6?
not fulfilled

Quick check: does CN(C)CCCC[C@@H]1NC(=O)[C@H]2C[C@@H](C(=O)NCCCCCCNC(=O)CS)[C@@H](c3cccc(OCCO)c3)N2C1=O have z-score greater than or equal to -0.6?
fulfilled

Quick check: does CN1C(=O)C2C=CC(C(O)c3cccs3)N(N(c3ccccc3)c3ccccc3)C2C1=O (centres undefined) have z-score greater than or equal to -0.6?
not fulfilled

Quick check: does O=C1O[C@H](c2ccccc2)[C@H](c2ccccc2)N2[C@H]1[C@@H](C(=O)N1CCCCCCC1)[C@]1(C(=O)Nc3ccc(C#CCCO)cc31)[C@H]2c1ccc(O)cc1 have z-score greater than or equal to -0.6?
fulfilled

Quick check: does COc1ccc(C(O)C2C=CC3C(=O)N(c4ccccc4)C(=O)C3N2Nc2ccccc2F)c2ccccc12 (centres undefined) have z-score greater than or equal to -0.6?
not fulfilled

###

Assay: P. aeruginosa biofilm formation inhibitors, primary screen, strain PAO1, LB-PBS medium, absorbance 600 nm (AID 1176)
Conditions: P. aeruginosa PAO1 growth/biofilm, A600, 12 h; higher = more signal
This section presents compounds with their documented z-score values.
Keep it simple and answer with nothing but the number.

Recorded results for 3 compounds are shown here.
compound=C=C[C@H](OC)[C@@H](O)c1ccc(OC)c(O)c1 parameter=z-score readout_number=0.65
compound="C[C@H]1C2[C@H](Cc3ccccc3)NC(=O)[C@]23C(=O)N[C@@H](Cc2ccccc2)C(=O)N2CCC[C@H]2C(=O)NC/C=C/CC/C=C/C3[C@@H]2O[C@]12C (some centres undefined)" parameter=z-score readout_number=0.355
compound=COC(=O)[C@@]1(Cc2ccccc2)[C@H]2c3cc(C(=O)N(C)C)n(Cc4ccc(Cl)c(C(F)(F)F)c4)c3C[C@H]2CN1C(=O)c1ccccc1 parameter=z-score readout_number=1.43

get_value(item= COC(=O)C(CC#Cc1ccc2c(c1)[C@]1(C(=O)N2)[C@H](c2ccc(OCCO)cc2)N2[C@H](c3ccccc3)[C@H](c3ccccc3)OC(=O)[C@H]2[C@@H]1C(N)=O)C(=O)OC , readout=z-score) returns 2.88

// provenance: PubChem BioAssay
